FYI, the data here is from ChEMBL document CHEMBL1148351.

# experimental_system: Muscarinic acetylcholine receptor M2 (Sus scrofa) (UniProt P06199)
# Sequence (P06199 whole entry): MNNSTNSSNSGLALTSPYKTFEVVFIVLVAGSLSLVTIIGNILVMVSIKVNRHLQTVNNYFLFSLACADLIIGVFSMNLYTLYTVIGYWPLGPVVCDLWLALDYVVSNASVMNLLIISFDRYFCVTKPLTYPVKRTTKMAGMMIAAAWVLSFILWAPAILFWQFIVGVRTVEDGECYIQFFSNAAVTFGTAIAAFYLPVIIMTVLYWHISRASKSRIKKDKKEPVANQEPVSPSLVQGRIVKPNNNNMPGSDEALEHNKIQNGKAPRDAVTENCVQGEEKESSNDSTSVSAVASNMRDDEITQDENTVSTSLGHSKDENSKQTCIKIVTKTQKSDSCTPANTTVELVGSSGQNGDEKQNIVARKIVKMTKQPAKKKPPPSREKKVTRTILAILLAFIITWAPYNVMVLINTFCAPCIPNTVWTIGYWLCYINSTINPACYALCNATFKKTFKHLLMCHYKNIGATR
# experiment_summary: Equilibrium binding to muscarinic acetylcholine receptor M2 using [3H]NMS in porcine heart ventricles
Parameter [3H]NMS equilibrium binding (%): see the listing below.
Give a bare numeral; the unit % is implied.

# compound, result
records = [
    ("Brc1ccc(C[N+]23CC[C@@]45c6ccccc6N6[C@@H]7OCC=C8C[N+]9(Cc%10ccc(Br)cc%10)CC[C@]%10%11c%12ccccc%12N([C@@H]%12OCC=C(C2)[C@H](C[C@@H]43)[C@@H]%12[C@H]65)[C@H]%10[C@H]7[C@H]8C[C@@H]%119)cc1 (stereo not given in full)", 113),
    ("C=CC[N@@+]12CC[C@@]34c5ccccc5N5/C=C6/[C@H]7C[C@H]8[C@@]9(CC[N@@+]8(CC=C)C/C7=C/CO)c7ccccc7N(/C=C(/[C@@H](C[C@@H]31)/C(=C\\CO)C2)[C@H]54)[C@@H]69", 116),
    ("C=CC[N+]12CC[C@@]34c5ccccc5N5[C@@H]6OCC=C7CN8CC[C@]9%10c%11ccccc%11N([C@@H]%11OCC=C(C1)[C@H](C[C@@H]32)[C@@H]%11[C@H]54)[C@H]9[C@H]6[C@H]7C[C@H]8%10 (stereo not given in full)", 81.4),
]

**Query** // query [3H]NMS equilibrium binding (%) value for entry COc1ccc(C[N+]23CC[C@@]45c6ccccc6N6[C@@H]7OCC=C8C[N+]9(Cc%10ccc(OC)c(OC)c%10)CC[C@]%10%11c%12ccccc%12N([C@@H]%12OCC=C(C2)[C@H](C[C@@H]43)C%12[C@H]65)[C@H]%10[C@H]7[C@H]8C[C@@H]%119)cc1OC (stereo not given in full)
**Result** 100

**Query** // query [3H]NMS equilibrium binding (%) value for entry OC/C=C1\C[N+]2(C3C=CCCC3)CCC34c5ccccc5N5/C=C6/C7CC8C9(CC[N+]8(C8C=CCCC8)C/C7=C/CO)c7ccccc7N(/C=C(/C1CC32)C54)C69 (stereo not given)
**Result** 118

**Query** // query [3H]NMS equilibrium binding (%) value for entry C[N+]12CC[C@@]34c5ccccc5N5[C@@H]6OCC=C7C[N+]8(C)CC[C@]9%10c%11ccccc%11N([C@@H]%11OCC=C(C1)[C@H](C[C@@H]32)[C@@H]%11[C@H]54)[C@H]9[C@H]6[C@H]7C[C@@H]%108 (stereo not given in full)
**Result** 115
